- Assay Procedure: Compound toxicity by ATPlite 1 Step (total ATP levels) in HepAD38 cells
- Type: cell-based
- Condition Parameters: human, day of harvest, concentration reducing total ATP levels by 50% relative to no drug controls
- Experimental: Methods: HepAD38 cells are maintained as previously reported (Ladner et al, Antimicrob. Agents Chemother. 1997, […], 1715). Briefly, cells are passaged upon attaining confluency in DMEM/F12 media in the presence of 10% FBS, Penn/Strep, 250 μg/mL G418, and 1 μg/ml tetracycline. […] Additionally, on day of harvest, compound toxicity is evaluated by treating cells with ATPlite 1 Step according to the manufacturer's protocol. […]
Metric: CC50

CCOC(=O)C1=C(CC2CCC[C@H]2C(=O)O)NC(c2nccs2)=NC1C1CCCCC1 (stereo partly drawn): > 30 µM
CCOC(=O)C1=C(C)NC(N2CCCC2=O)=NC1c1ccc(F)cc1Cl (stereo not drawn): > 30 µM
CC1=C(c2ncco2)[C@H](c2ccc(F)cc2Cl)N=C(c2nccs2)N1 (single isomer, unassigned) [Example 13b]: > 30 µM
